# credit: patent US20250214986A1

Assay procedure: Dynamic solubility experiment at 37° C.
Type: physicochemical
Study conditions: SGF, 37 °C, pH 1.8, simulated gastric fluid, thermodynamic from solid, SGF, 24 h, read-out: S: solubility
Description: In the test, the purity, dynamic solubility and stability were tested using an Agilent 1260 high-performance liquid chromatograph, the molar ratio of salt-forming ions was tested using ion chromatography, and the analytical conditions are shown in Tables A-4 and A-5 below. Solids at a feeding concentration of 10 mg/mL (calculated based on free base) were rotationally mixed with corresponding vehicles at 37° C. […] The HPLC concentrations and pH values of the filtrates were determined. […]
Where a name gives a salt, the structure may show the parent alone.
Readout name: solubility at 24 h

                                   compound  endpoint_value
0  Cc1cnc(-c2cc(O[C@@H](C)[C@@H](C)O)cc(C(=O)N[C@H](C)c3cnc(C(F)(F)F)nc3)c2F)s1 [Crystalline form A of hydrochloride]        11 µg/mL

----------
Assay procedure: Dynamic solubility experiment at 37° C.
Format: physicochemical
Study conditions: FeSSIF, 24 h
Protocol: In the test, the purity, dynamic solubility and stability were tested using an Agilent 1260 high-performance liquid chromatograph, the molar ratio of salt-forming ions was tested using ion chromatography, and the analytical conditions are shown in Tables A-4 and A-5 below. Solids at a feeding concentration of 10 mg/mL (calculated based on free base) were rotationally mixed with corresponding vehicles at 37° C. […] The HPLC concentrations and pH values of the filtrates were determined. […]
Structures can show the parent of a compound that is named as a salt.
As shown below, each of these compounds has a reported pH of filtrate value.
Readout name: pH of filtrate

>>> print(df.to_string())
                                   compound    readout_name  endpoint_value
0  Cc1cnc(-c2cc(O[C@@H](C)[C@@H](C)O)cc(C(=O)N[C@H](C)c3cnc(C(F)(F)F)nc3)c2F)s1 [Crystalline form A of maleate]  pH of filtrate             4.9
1  Cc1cnc(-c2cc(O[C@@H](C)[C@@H](C)O)cc(C(=O)N[C@H](C)c3cnc(C(F)(F)F)nc3)c2F)s1 [Free base crystalline form A]  pH of filtrate             5.0
2  Cc1cnc(-c2cc(O[C@@H](C)[C@@H](C)O)cc(C(=O)N[C@H](C)c3cnc(C(F)(F)F)nc3)c2F)s1 [Crystalline form A of p-toluenesulfonate]  pH of filtrate             4.8
3  Cc1cnc(-c2cc(O[C@@H](C)[C@@H](C)O)cc(C(=O)N[C@H](C)c3cnc(C(F)(F)F)nc3)c2F)s1 [Crystalline form A of hydrochloride]  pH of filtrate             4.9

----------
Assay procedure: Dynamic solubility experiment at 37° C.
Type: physicochemical
Study conditions: FaSSIF, 24 h
Structures can show the parent of a compound that is named as a salt.
Reported pH of filtrate values for a set of molecules
Readout name: pH of filtrate

>>> print(df.to_string())
                                   molecule  endpoint_value
0  Cc1cnc(-c2cc(O[C@@H](C)[C@@H](C)O)cc(C(=O)N[C@H](C)c3cnc(C(F)(F)F)nc3)c2F)s1 [Free base crystalline form A]             6.5
1  Cc1cnc(-c2cc(O[C@@H](C)[C@@H](C)O)cc(C(=O)N[C@H](C)c3cnc(C(F)(F)F)nc3)c2F)s1 [Crystalline form A of hydrochloride]             5.2
2  Cc1cnc(-c2cc(O[C@@H](C)[C@@H](C)O)cc(C(=O)N[C@H](C)c3cnc(C(F)(F)F)nc3)c2F)s1 [Crystalline form A of maleate]             4.5
3  Cc1cnc(-c2cc(O[C@@H](C)[C@@H](C)O)cc(C(=O)N[C@H](C)c3cnc(C(F)(F)F)nc3)c2F)s1 [Crystalline form A of p-toluenesulfonate]             2.6
